Tested on: SUM159
Experiment: GRmax, 72 h; higher = less effect
property-label: GRmax, 72 h (GR)
Write the value in GR as a bare number.

Which GRmax, 72 h value is on record for CN1CC[C@H](c2c(O)cc(O)c3c(=O)cc(-c4ccccc4Cl)oc23)[C@H](O)C1 [Flavopiridol] (max 1 µM) ?
-0.051

// next record CC[C@@H]1C(=O)N(C)c2cnc(Nc3ccc(C(=O)N[C@H]4CC[C@H](N5CCN(CC6CC6)CC5)CC4)cc3OC)nc2N1C(C)C [Volasertib/BI6727] (max 1 µM)
0.0326

Another molecule to look at: CC(C)NC[C@@H](C(=O)N1CCN(c2ncnc3c2[C@H](C)C[C@H]3O)CC1)c1ccc(Cl)cc1 [Ipatasertib/GDC0068] (max 10 µM)
0.591

Request: Cc1cc(C(C)Nc2ccccc2)c2nc(N3CCOCC3)cc(=O)n2c1 (stereo unspecified) [TGX221] (max 10 µM)
1.02

Please answer likewise for CO[C@H]1C[C@@H]2CC[C@@H](C)[C@@](O)(O2)C(=O)C(=O)N2CCCC[C@H]2C(=O)O[C@H]([C@H](C)C[C@@H]2CC[C@@H](OCCO)[C@H](OC)C2)CC(=O)[C@H](C)/C=C(\C)[C@@H](O)[C@@H](OC)C(=O)[C@H](C)C[C@H](C)/C=C/C=C/C=C/1C [Everolimus] (max 10 µM)
0.866

Next up: CC(=O)c1c(C)c2cnc(Nc3ccc(N4CCNCC4)cn3)nc2n(C2CCCC2)c1=O (max 3.162 µM)
0.45

###

Tested on: SUM52PE
Test: area over the GR curve, 72 h; higher = more effect;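 note: Dye Drop or Deep Dye Drop imaging of viable cells in 384-well plates (Hoechst nuclei, LIVE/DEAD dye), nine half-log doses, GR normalized to DMSO controls and time-zero plates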
Would you kindly list area over the GR curve for each of these molecules?
Answer with a number only, understood to be in GR.

Entry under review: `COc1cccc(OCCCN)c1-c1cc(Nc2cnc(C#N)cn2)n[nH]1` . Reported area over the GR curve?
0.425

Subsequent entry: Cc1nn(C)c(COc2ccc(N3CCN(S(=O)(=O)N(C)C)CC3)cc2)c1-c1cccc2c(CCCOc3cccc4ccccc34)c(C(=O)O)n(CCN3CCOCC3)c12 (max 10 µM)
0.0586

For CN(C)CC[C@H](CSc1ccccc1)Nc1ccc(S(=O)(=O)NC(=O)c2ccc(N3CCN(Cc4ccccc4-c4ccc(Cl)cc4)CC3)cc2)cc1[N+](=O)[O-] [ABT-737] (max 10 µM) then?
0.0757

###

Exercise: state measured GRmax, 72 h for each of the compounds provided.
Test system: MDAMB468
Assay: GRmax, 72 h; higher = less effect;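 note: breast cell lines in 384-well plates, nine doses across a 10^4 range, Dye Drop imaging of viable cells vs DMSO and time-zero plates, GR 0 means no net growth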
All answers are understood in GR, so give the number only.

So what does the record say about GRmax, 72 h for COc1cc2nccc(Oc3ccc(NC(=O)C4(C(=O)Nc5ccc(F)cc5)CC4)cc3)c2cc1OC [Cabozantinib] (max 10 µM) ?
0.423

What would you report for COc1cccc2c1C(=O)c1c(O)c3c(c(O)c1C2=O)C[C@@](O)(C(=O)CO)C[C@@H]3O[C@H]1C[C@H](N)[C@H](O)[C@H](C)O1 [Doxorubicin] (max 3.162 µM) ?
-0.339

// next record Cc1nc(-c2cn3c(n2)-c2ccc(-c4cnn(C(C)(C)C(N)=O)c4)cc2OCC3)n(C(C)C)n1 [Taselisib/GDC0032] (max 10 µM)
0.0046

Same lookup for `CCC(=O)Nc1ccc(C(=O)Nc2ccc(Nc3ncc4c(n3)N(C)c3ccc(C)cc3C(=O)N4C)cc2)cc1` , please.
-0.46

One more compound: CCCCOc1c(C(=O)c2c(F)cc(C)cc2F)c[nH]c2nncc1-2 (max 10 µM)
-0.112

Continue with CN(C)C(=O)c1cc2cnc(Nc3ccc(N4CCNCC4)cn3)nc2n1C1CCCC1 [LEE011/Ribociclib] (max 10 µM)
0.947

Let us now turn to C[C@@H]1COCCN1c1cc(C2([S@](C)(=N)=O)CC2)nc(-c2cc[nH]c3nccc2-3)n1 [AZD6738] (max 10 µM)
0.529

Now consider O=C1NC(=NCc2cccs2)SC1=Cc1ccc2ncccc2c1 [R0-3306] (max 10 µM) .
-0.271

Request: CCc1cnn2c(NCc3ccc[n+]([O-])c3)cc(N3CCCC[C@H]3CCO)nc12 (max 1 µM)
-0.413

For CC[C@@]1(O)C(=O)OCc2c1cc1n(c2=O)Cc2cc3c(CN(C)C)c(O)ccc3nc2-1 [Topotecan] (max 10 µM) then?
-0.658

Please answer likewise for CC(C)Nc1cc(-c2c[nH]c(C(=O)N[C@H](CO)c3cccc(Cl)c3)c2)c(Cl)cn1 [BVD523] (max 10 µM)
0.402

Same thing, different compound: CNc1nc(-c2ccc3c(N)n[nH]c3c2)cc(N2C[C@@H](C(=O)NC3CCCCC3)CC[C@H]2C)n1 (max 10 µM)
0.531

Please give the result for CS(=O)(=O)N1CCN(Cc2cc3nc(-c4cccc5[nH]ncc45)nc(N4CCOCC4)c3s2)CC1 [Pictilisib/GDC0941] (max 10 µM) too.
-0.0613

Now consider N.N.[Cl][Pt][Cl] [Cisplatin] (max 10 µM) .
-0.287

And Cc1cc(Nc2ncc(Cl)c(Nc3ccccc3S(=O)(=O)C(C)C)n2)c(OC(C)C)cc1C1CCNCC1 [Ceritinib/LDK378] (max 10 µM) ?
-0.742

Check CC(=O)O[C@H]1C(=O)[C@@]2(C)[C@H]([C@H](OC(=O)c3ccccc3)[C@]3(O)C[C@H](OC(=O)[C@H](O)[C@@H](NC(=O)c4ccccc4)c4ccccc4)C(C)=C1C3(C)C)[C@]1(OC(C)=O)CO[C@@H]1C[C@@H]2O [Paclitaxel] (max 1 µM) too.
-0.522

Now consider COc1cc([C@@H]2c3cc4c(cc3[C@@H](O[C@@H]3O[C@@H]5CO[C@@H](C)O[C@H]5[C@H](O)[C@H]3O)[C@H]3COC(=O)[C@H]23)OCO4)cc(OC)c1O [Etoposide] (max 10 µM) .
-0.513

Entry to check: `COc1cc(N2CCN(C)CC2)ccc1Nc1ncc2c(n1)N(C)c1ccccc1C(=O)N2CC(F)(F)F`
0.706

Please give the result for CC(=O)c1c(C)c2cnc(Nc3ccc(N4CCNCC4)cn3)nc2n(C2CCCC2)c1=O (max 3.162 µM) too.
1.05

Same again, this time with Cc1nc(NC(=O)N2CCC[C@H]2C(N)=O)sc1-c1ccnc(C(C)(C)C(F)(F)F)c1 [Alpelisib/BYL719] (max 10 µM)
0.714

Subsequent entry: CNCc1ccc(-c2[nH]c3cc(F)cc4c3c2CCNC4=O)cc1 [Rucaparib] (max 10 µM)
0.345
